- assay text: Pharmacokinetics after intravenous and oral administration in mice
- Type: in vivo
- condition summary: plasma; Mouse, iv dosing, dose 1 mg/kg
attribute measured: AUC(0-t) (ng·h/mL)

[
  {
    "cpd smiles": "Cc1nnc(-c2c(N)ncnc2N[C@@H](C)c2nc3cccc(Cl)c3c(=O)n2-c2ccccc2)o1",
    "attribute measured": "AUC(0-t)",
    "result value": 883
  },
  {
    "cpd smiles": "Cc1noc(-c2c(N)ncnc2N[C@@H](C)c2nc3cccc(Cl)c3c(=O)n2-c2ccccc2)n1",
    "attribute measured": "AUC(0-t)",
    "result value": 527
  },
  {
    "cpd smiles": "CC[C@H](Nc1ncnc(N)c1-c1nc(C)no1)c1nc2cccc(Cl)c2c(=O)n1C1CC1",
    "attribute measured": "AUC(0-t)",
    "result value": 651
  }
]

* * *

- assay text: Compound stability in human liver microsomes
- Assay type: in vitro ADME
- condition summary: human liver microsomes; in vivo CLint extrapolated
attribute measured: CLint scaled at 5 μM (mL/min/kg)

Solved cases (6 shown):
[
  {
    "cpd smiles": "CC[C@H](Nc1ncnc(N)c1-c1nnc(C)o1)c1nc2cccc(C)c2c(=O)n1-c1ccccc1",
    "attribute measured": "CLint scaled at 5 μM",
    "result value": 109
  },
  {
    "cpd smiles": "CC[C@H](Nc1ncnc(N)c1-c1nnc(C)o1)c1nc2cccc(Cl)c2c(=O)n1-c1ccccc1C",
    "attribute measured": "CLint scaled at 5 μM",
    "result value": 45.9
  },
  {
    "cpd smiles": "CCc1noc(-c2c(N)ncnc2N[C@@H](CC)c2nc3cccc(Cl)c3c(=O)n2C2CC2)n1",
    "attribute measured": "CLint scaled at 5 μM",
    "result value": 87
  },
  {
    "cpd smiles": "CC[C@H](Nc1ncnc(N)c1-c1ncn(C)n1)c1nc2cccc(F)c2c(=O)n1C1CC1",
    "attribute measured": "CLint scaled at 5 μM",
    "result value": 33.4
  },
  {
    "cpd smiles": "CC[C@H](Nc1ncnc(N)c1-c1noc(C)n1)c1nc2cccc(Cl)c2c(=O)n1C1CC1",
    "attribute measured": "CLint scaled at 5 μM",
    "result value": 84.6
  },
  {
    "cpd smiles": "CC[C@H](Nc1ncnc(N)c1-c1noc(C)n1)c1nc2cccc(Cl)c2c(=O)n1-c1ccccc1",
    "attribute measured": "CLint scaled at 5 μM",
    "result value": 38.9
  }
]

[a] CC[C@H](Nc1ncnc(N)c1-c1ccon1)c1nc2cccc(F)c2c(=O)n1C1CC1
[b] CC[C@H](Nc1ncnc(N)c1-c1nc(C)co1)c1nc2cccc(Cl)c2c(=O)n1C1CC1
Input: Of the two listed items, which has the higher CLint scaled at 5 μM? First: a Second: b API: response body contains the label of the selected item.
Output: b
(b: 322 mL/min/kg, a: 12.8 mL/min/kg)

* * *

- assay text: Pharmacokinetics after intravenous and oral administration in rats
- Format: in vivo, rat
- condition summary: rat, plasma, iv dosing, dose 1 mg/kg
attribute measured: AUC(0-t) (ng·h/mL)

Check out these entries, answers already filled in.
[
  {
    "cpd smiles": "CC[C@H](Nc1ncnc(N)c1C1=N[C@@H](C)CO1)c1nc2cccc(Cl)c2c(=O)n1C1CC1",
    "unit descriptor": "ng·h/mL",
    "AUC(0-t)": 276
  },
  {
    "cpd smiles": "CC[C@H](Nc1ncnc(N)c1-c1ncc(C)o1)c1nc2cccc(Cl)c2c(=O)n1C1CC1",
    "unit descriptor": "ng·h/mL",
    "AUC(0-t)": 300
  },
  {
    "cpd smiles": "CC[C@H](Nc1ncnc(N)c1-c1nc(C)no1)c1nc2cccc(C)c2c(=O)n1-c1ccccc1",
    "unit descriptor": "ng·h/mL",
    "AUC(0-t)": 246
  },
  {
    "cpd smiles": "CC[C@H](Nc1ncnc(N)c1-c1nnc(C)o1)c1nc2cccc(C)c2c(=O)n1-c1ccccc1",
    "unit descriptor": "ng·h/mL",
    "AUC(0-t)": 236
  },
  {
    "cpd smiles": "CC[C@H](Nc1ncnc(N)c1-c1nc(C(N)=O)n(C)n1)c1nc2cccc(Cl)c2c(=O)n1C1CC1",
    "unit descriptor": "ng·h/mL",
    "AUC(0-t)": 580
  }
]

[a] CC[C@H](Nc1ncnc(N)c1-c1nnc(C)o1)c1nc2cccc(F)c2c(=O)n1C1CC1
[b] CC[C@H](Nc1ncnc(N)c1-c1ncn(C)n1)c1nc2cccc(F)c2c(=O)n1C1CC1
Input: From the recorded data, which exceeds the other in AUC(0-t): a or b ? State the label of the item chosen.
Output: b

* * *

- assay text: Pharmacokinetics after intravenous and oral administration in dogs
- Type: in vivo
- condition summary: plasma; Dog, iv dosing, dose 1 mg/kg
attribute measured: AUC(0-t) (ng·h/mL)

[1] Cc1noc(-c2c(N)ncnc2N[C@@H](C)c2nc3cccc(Cl)c3c(=O)n2-c2ccccc2)n1 [Ex. 65]
[2] Cc1nnc(-c2c(N)ncnc2N[C@@H](C)c2nc3cccc(Cl)c3c(=O)n2-c2ccccc2)o1 [Ex. 64]
[3] CC[C@H](Nc1ncnc(N)c1-c1nc(C)no1)c1nc2cccc(Cl)c2c(=O)n1C1CC1 [Ex. 4]
Input: From the items above, give an ordering by AUC(0-t) that starts at the lowest reported number. // format: requested-order list of labels
Output: 3, 1, 2

* * *

- assay text: Pharmacokinetics after intravenous and oral administration in monkeys
- Assay type: in vivo
- condition summary: plasma; Monkey, iv dosing, dose 1 mg/kg
attribute measured: half-life (h)

[
  {
    "cpd smiles": "CC[C@H](Nc1ncnc(N)c1-c1nc(C)no1)c1nc2cccc(Cl)c2c(=O)n1C1CC1",
    "half-life [h]": 3.09
  }
]

[A] Cc1nnc(-c2c(N)ncnc2N[C@@H](C)c2nc3cccc(Cl)c3c(=O)n2-c2ccccc2)o1
[B] Cc1noc(-c2c(N)ncnc2N[C@@H](C)c2nc3cccc(Cl)c3c(=O)n2-c2ccccc2)n1
Input: # return whichever of A and B has the smaller half-life Kindly state the label of the option you pick.
Output: A

* * *

- assay text: Pharmacokinetics after intravenous and oral administration in rats
- Assay type: in vivo, rat
- condition summary: rat, plasma, iv dose 0.5 mg/kg, oral dose generally 5 or 10 mg/kg
attribute measured: bioavailability (%)

[
  {
    "cpd smiles": "CC[C@H](Nc1ncnc(N)c1-c1ncnn1C)c1nc2cccc(Cl)c2c(=O)n1-c1ccccc1",
    "bioavailability / %": 40.2
  },
  {
    "cpd smiles": "CC[C@H](Nc1ncnc(N)c1-c1ccccn1)c1nc2cccc(Cl)c2c(=O)n1C1CC1",
    "bioavailability / %": 38.5
  },
  {
    "cpd smiles": "CC[C@H](Nc1ncnc(N)c1-c1nnc(C)o1)c1nc2cccc(Cl)c2c(=O)n1-c1ccccc1",
    "bioavailability / %": 32.3
  },
  {
    "cpd smiles": "CC[C@H](Nc1ncnc(N)c1-c1nnc(C)o1)c1nc2cccc(Cl)c2c(=O)n1-c1ccccc1C",
    "bioavailability / %": 41.8
  }
]

* * *

- assay text: Compound stability in rat liver microsomes
- Assay type: in vitro ADME
- condition summary: pH 7.4; rat liver microsomes; in vivo CLint extrapolated
attribute measured: CLint scaled at 5 μM (mL/min/kg)

[
  {
    "cpd smiles": "CC[C@H](Nc1ncnc(N)c1-c1nnn(C)n1)c1nc2cccc(Cl)c2c(=O)n1C1CC1",
    "result value": 25.1
  },
  {
    "cpd smiles": "CC[C@H](Nc1ncnc(N)c1-c1noc(C)n1)c1nc2cccc(C)c2c(=O)n1-c1ccccc1C",
    "result value": 513
  },
  {
    "cpd smiles": "CC[C@H](Nc1ncnc(N)c1C1=N[C@@H](C)CO1)c1nc2cccc(Cl)c2c(=O)n1-c1ccccc1",
    "result value": 722
  },
  {
    "cpd smiles": "CCc1nc(-c2c(N)ncnc2N[C@@H](C)c2nc3cccc(Cl)c3c(=O)n2C2CC2)no1",
    "result value": 755
  },
  {
    "cpd smiles": "Cc1noc(-c2c(N)ncnc2N[C@@H](C)c2nc3cccc(F)c3c(=O)n2-c2ccccc2)n1",
    "result value": 139
  }
]

[P] CC[C@H](Nc1ncnc(N)c1-c1ncn(C)n1)c1nc2cccc(Cl)c2c(=O)n1-c1ccccc1F
[Q] CC[C@H](Nc1ncnc(N)c1-c1nc(C)no1)c1nc2cccc(F)c2c(=O)n1-c1ccccc1
[R] CC[C@H](Nc1ncnc(N)c1-c1nc(C)no1)c1nc2cccc(C)c2c(=O)n1C1CC1
[S] CC[C@H](Nc1ncnc(N)c1-c1noc(C)n1)c1nc2ccccc2c(=O)n1-c1ccccc1F
Input: Please put the entries in order of rising CLint scaled at 5 μM. Dear reader, please state the labels in the requested order.
Output: R, Q, P, S
(R: 99.3 mL/min/kg, Q: 159 mL/min/kg, P: 276 mL/min/kg, S: 923 mL/min/kg)
